The reported numbers originate from paper PMC8808741.

- TEST TARGET: FVa (activated factor V) (human, UniProt P12259;P12259 29-737;1574-2224)
- Sequence (P12259 29-737, chain 1 of 2): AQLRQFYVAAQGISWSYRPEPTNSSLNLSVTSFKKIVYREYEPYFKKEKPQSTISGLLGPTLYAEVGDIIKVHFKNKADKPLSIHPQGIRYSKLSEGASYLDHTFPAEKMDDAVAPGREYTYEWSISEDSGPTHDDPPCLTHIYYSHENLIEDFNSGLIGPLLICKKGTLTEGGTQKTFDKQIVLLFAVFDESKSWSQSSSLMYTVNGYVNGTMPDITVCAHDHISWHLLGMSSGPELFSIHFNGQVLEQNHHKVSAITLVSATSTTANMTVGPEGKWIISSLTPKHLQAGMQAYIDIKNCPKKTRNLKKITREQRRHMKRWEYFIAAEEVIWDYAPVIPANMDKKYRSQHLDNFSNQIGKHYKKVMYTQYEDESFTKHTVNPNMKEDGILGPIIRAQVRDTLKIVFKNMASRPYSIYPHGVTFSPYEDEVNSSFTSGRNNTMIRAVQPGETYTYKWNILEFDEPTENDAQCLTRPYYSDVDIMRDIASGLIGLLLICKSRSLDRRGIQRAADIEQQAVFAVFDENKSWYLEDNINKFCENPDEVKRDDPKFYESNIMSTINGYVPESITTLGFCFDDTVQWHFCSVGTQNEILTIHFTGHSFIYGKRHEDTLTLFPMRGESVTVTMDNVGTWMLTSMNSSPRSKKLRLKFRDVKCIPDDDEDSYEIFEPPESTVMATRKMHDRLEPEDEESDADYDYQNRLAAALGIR
- Sequence (P12259 1574-2224, chain 2 of 2): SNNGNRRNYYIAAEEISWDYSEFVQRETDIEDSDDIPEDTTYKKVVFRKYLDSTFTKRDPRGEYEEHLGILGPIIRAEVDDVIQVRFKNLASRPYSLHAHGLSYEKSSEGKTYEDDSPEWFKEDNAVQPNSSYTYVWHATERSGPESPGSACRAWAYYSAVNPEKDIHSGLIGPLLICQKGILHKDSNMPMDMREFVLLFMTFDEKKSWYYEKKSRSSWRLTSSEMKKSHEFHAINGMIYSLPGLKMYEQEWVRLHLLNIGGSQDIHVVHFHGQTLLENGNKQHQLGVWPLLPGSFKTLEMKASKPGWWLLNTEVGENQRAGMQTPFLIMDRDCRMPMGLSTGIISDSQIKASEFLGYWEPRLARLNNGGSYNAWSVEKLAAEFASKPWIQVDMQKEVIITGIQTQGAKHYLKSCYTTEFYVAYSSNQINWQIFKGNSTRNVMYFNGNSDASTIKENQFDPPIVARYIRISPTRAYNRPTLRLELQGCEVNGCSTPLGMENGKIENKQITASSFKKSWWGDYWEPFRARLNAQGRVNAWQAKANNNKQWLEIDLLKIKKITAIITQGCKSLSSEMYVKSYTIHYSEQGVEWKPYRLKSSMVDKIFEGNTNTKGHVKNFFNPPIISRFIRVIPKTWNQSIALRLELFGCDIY
- ASSAY NOTES: filter binding
MEASURED PARAMETER: pKd
Expect pKd as a plain number equal to -log10 of the molar concentration.

Summary for this binder, T18.3 (structured_RNA, all C and U 2'-fluoro) RNA: GGACUUGGAUAACCUCACCGCAAUGGCGGCUUGUCAGACGACUCGCUGAGGAUCCGAG : pKd is 9.00
